# EC50 values compiled below
- System: KB
- ASSAY_NAME: Cytotoxicity against human KB cells
- Type: functional
- EXPERIMENTAL_PARAMETERS: read-out: ED50 (the source's name)
Dear colleague, please return just the value in µg/mL, with no unit written.

Below, 3 molecules whose answers are already recorded.
INSERT INTO results (molecule, endpoint_value) VALUES
  ('COc1cc2c[n+]3c(c(C)c2cc1OC)-c1cc2c(cc1CC3)OCO2.[I-]', 2.98),
  ('COc1cc2c(cc1OC)-c1c(C)c3ccc(OC)c(OC)c3c[n+]1CC2.[Cl-]', 4.76),
  ('COc1cc2c(cc1OC)[C@@H](CO)[C@H]1c3cc4c(cc3CCN1C2)OCO4 (relative stereo)', 2.65);

For the next question, use this molecule.
[in] Can you look up EC50 on KB for COc1cc2c(cc1OC)[C@@H](C)[C@H]1c3cc4c(cc3CCN1C2)OCO4 (relative stereo) ?
[out] 0.47
